- targetEntity: cloned human NR1/NR2B ion channels (Homo sapiens (Human), UniProt Q05586+Q13224)
- Sequence (Q13224 27-1484, other chains not shown): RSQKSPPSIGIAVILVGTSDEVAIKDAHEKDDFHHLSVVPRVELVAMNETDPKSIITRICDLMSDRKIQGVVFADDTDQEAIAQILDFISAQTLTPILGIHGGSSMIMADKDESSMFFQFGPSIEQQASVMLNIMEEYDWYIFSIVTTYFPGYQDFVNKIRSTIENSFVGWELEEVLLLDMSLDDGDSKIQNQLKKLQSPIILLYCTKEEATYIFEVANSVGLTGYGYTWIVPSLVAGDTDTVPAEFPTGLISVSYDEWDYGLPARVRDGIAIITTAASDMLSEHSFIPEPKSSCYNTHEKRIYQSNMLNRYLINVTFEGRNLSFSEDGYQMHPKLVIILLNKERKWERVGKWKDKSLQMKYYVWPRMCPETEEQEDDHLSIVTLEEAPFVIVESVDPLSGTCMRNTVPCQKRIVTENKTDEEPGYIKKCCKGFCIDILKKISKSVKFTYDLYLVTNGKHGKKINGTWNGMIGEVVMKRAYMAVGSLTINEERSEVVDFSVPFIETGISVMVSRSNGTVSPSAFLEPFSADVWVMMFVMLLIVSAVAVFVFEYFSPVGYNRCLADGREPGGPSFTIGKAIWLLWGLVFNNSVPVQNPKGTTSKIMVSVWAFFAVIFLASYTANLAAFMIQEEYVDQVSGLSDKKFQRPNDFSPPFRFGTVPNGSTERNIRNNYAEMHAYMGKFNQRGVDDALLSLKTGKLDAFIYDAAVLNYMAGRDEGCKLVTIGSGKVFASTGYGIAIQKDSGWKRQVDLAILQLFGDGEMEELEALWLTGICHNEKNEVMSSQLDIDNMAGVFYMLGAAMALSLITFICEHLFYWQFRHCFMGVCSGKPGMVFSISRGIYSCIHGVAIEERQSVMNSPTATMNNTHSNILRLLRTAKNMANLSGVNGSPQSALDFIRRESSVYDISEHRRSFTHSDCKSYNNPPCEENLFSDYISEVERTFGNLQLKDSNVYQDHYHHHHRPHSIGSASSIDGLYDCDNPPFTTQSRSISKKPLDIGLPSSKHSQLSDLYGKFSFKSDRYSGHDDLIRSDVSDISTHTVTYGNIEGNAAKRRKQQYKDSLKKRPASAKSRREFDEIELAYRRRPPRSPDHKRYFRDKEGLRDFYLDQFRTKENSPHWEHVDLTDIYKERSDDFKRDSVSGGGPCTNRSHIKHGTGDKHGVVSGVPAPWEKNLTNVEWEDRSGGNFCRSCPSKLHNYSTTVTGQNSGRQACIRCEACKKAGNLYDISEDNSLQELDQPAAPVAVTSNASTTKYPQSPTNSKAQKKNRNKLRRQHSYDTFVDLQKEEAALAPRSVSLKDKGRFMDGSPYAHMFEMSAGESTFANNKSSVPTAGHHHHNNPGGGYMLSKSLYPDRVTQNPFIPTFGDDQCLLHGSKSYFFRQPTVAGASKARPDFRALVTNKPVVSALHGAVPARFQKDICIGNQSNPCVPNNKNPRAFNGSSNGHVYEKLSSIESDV
- procedureText: HNR2BC: effects of test articles on cloned human NR1/NR2B ion channels expressed in mammalian cells (FLIPR calcium flux)
- Assay type: cell-based
- conditionLabel: cloned human NR1/NR2B, Table 5
pIC50: −log10 of the molar value. Where a name gives a salt, the structure may show the parent alone.
Recorded measurements of pIC50, one per entry
assayEndpoint: pIC50

1. Cc1ccc(-c2cnc3ccn(CC(=O)N4CC(F)C4)c3c2)s1 : 7.50
2. CCc1ccc(-c2cnc3ccn(CC(=O)N4CCCC4)c3c2)s1 : 7.10
3. Cc1cc(-c2cnc3c(Cl)cn(CC(=O)N4CC(F)C4)c3c2)ccc1F : 7.40
4. Cc1cccc(-c2cnc3c(Cl)cn(CC(=O)N4CCC4)c3c2)c1 : 7.50
5. O=C(Cn1ccc2ncc(-c3ccc(F)cc3)cc21)N1CCC(F)(F)C1 : 6.50
6. O=C(Cn1ccc2ncc(-c3ccc(F)cc3)cc21)C1CCC1 : 7.70
7. Cc1cc(-c2cnc3ccn(CC(C)(O)C4CC4)c3c2)ccc1F (racemic) [Example 275, trifluoroacetate salt] : 6.80
8. Cc1cc(-c2cnc3ccn(Cc4ccncc4)c3c2)ccc1F [Example 179, trifluoroacetate salt] : 7.30
9. O=C(Cn1ccc2ncc(-c3cccc(F)c3)cc21)C1CCC1 : 5.90
